# Target: WT BTK protein (Homo sapiens)
# Construct: measured for intracellular BTK protein levels by Western blotting; endogenous in cells; host or cells: TMD-8 or RAMOS cells
# Procedure details: BTK protein degradation assay (Western blotting), WT BTK
# Format: cell-based
# Experimental setup: concentration range accounting for 50% degradation of WT BTK protein, TMD-8 or RAMOS cells, 24 hours
Readout: DC50

Solved entries:
INSERT INTO measurements (compound, target, result) VALUES
  ('Cc1cccc(C)c1Nc1nn(C)c2nc(Nc3ccc4c(c3)CN(CC3CCN(C(=O)CN5CCN(c6ccc7c(c6)C(=O)N(C6CCC(=O)NC6=O)C7=O)CC5)CC3)CC4)ncc12 (centres unmarked)', 'WT BTK protein (Homo sapiens)', '0.1 to 10 nM'),
  ('Cc1cccc(C)c1Nc1nn(C)c2nc(Nc3ccc4c(c3)CN(CC3CCN(C(=O)C5CCN(c6ccc7c(=O)n(C8CCC(=O)NC8=O)nnc7c6)CC5)CC3)CC4)ncc12 (centres unmarked)', 'WT BTK protein (Homo sapiens)', '0.1 to 10 nM'),
  ('Cc1cc(F)ccc1Nc1nn(C)c2nc(Nc3ccc4c(c3)CN(CC3CCN(c5ccc6c(c5)C(=O)N(C5CCC(=O)NC5=O)C6=O)CC3)CC4)ncc12 (centres unmarked)', 'WT BTK protein (Homo sapiens)', '10 to 1000 nM'),
  ('Cc1cccc(C)c1Nc1nn(C)c2nc(Nc3ccc(C4CN(C[C@@H]5CCN(c6ccc7c(c6)C(=O)N(C6CCC(=O)NC6=O)C7=O)C5)C4)cc3)ncc12 (some centres unmarked)', 'WT BTK protein (Homo sapiens)', '0.1 to 10 nM'),
  ('Cc1cccc(C)c1Nc1nn(C)c2nc(Nc3ccc4c(c3)CN(Cc3cn(CCOCCOCCNC(=O)CNc5ccc6c(c5)C(=O)N(C5CCC(=O)NC5=O)C6=O)nn3)CC4)ncc12 (centres unmarked)', 'WT BTK protein (Homo sapiens)', '10 to 1000 nM'),
  ('Cc1cccc(Br)c1Nc1nn(C)c2nc(Nc3ccc4c(c3)CN(CC3CCN(c5ccc6c(c5)C(=O)N(C5CCC(=O)NC5=O)C6=O)CC3)CC4)ncc12 (centres unmarked)', 'WT BTK protein (Homo sapiens)', '0.1 to 10 nM');

I am curious: what DC50 value has been reported for Cc1cccc(C)c1Nc1nn(C)c2nc(Nc3ccc4c(c3)CN(CC3CCN(C(=O)Nc5ccc6c(c5)CN(C5CCC(=O)NC5=O)C6=O)CC3)CC4)ncc12 (centres unmarked) ?
0.1 to 10 nM

Try this compound too: Cc1cccc(C)c1Nc1nn(C)c2nc(Nc3ccc4c(c3)CN(C(=O)CNCc3ccc5c(c3)CN(C3CCC(=O)NC3=O)C5=O)CC4)ncc12 (centres unmarked)
0.1 to 10 nM

Try this compound too: Cc1cccc(C)c1Nc1nn(C)c2nc(Nc3ccc4c(c3)CN(C(=O)C3CCN(C(=O)CNc5ccc6nnn(C7CCC(=O)NC7=O)c(=O)c6c5)CC3)CC4)ncc12 (centres unmarked)
0.1 to 10 nM

Try this compound too: Cc1ccccc1Nc1nn(C)c2nc(Nc3ccc4c(c3)CN(CC3CCN(c5ccc6c(c5)C(=O)N(C5CCC(=O)NC5=O)C6=O)CC3)CC4)ncc12 (centres unmarked)
0.1 to 10 nM

Try this compound too: Cc1cccc(C)c1Nc1nn(C)c2nc(Nc3ccc4c(c3)CN(C(=S)C3CCN(C(=O)COc5ccc6c(c5)C(=O)N(C5CCC(=O)NC5=O)C6=O)CC3)CC4)ncc12 (centres unmarked)
0.1 to 10 nM

###

# Target: WT BTK protein (Homo sapiens, UniProt Q06187)
# Construct: measured for intracellular BTK protein levels by Western blotting; endogenous in cells; host or cells: TMD-8 or RAMOS cells
# Sequence (Q06187 whole entry): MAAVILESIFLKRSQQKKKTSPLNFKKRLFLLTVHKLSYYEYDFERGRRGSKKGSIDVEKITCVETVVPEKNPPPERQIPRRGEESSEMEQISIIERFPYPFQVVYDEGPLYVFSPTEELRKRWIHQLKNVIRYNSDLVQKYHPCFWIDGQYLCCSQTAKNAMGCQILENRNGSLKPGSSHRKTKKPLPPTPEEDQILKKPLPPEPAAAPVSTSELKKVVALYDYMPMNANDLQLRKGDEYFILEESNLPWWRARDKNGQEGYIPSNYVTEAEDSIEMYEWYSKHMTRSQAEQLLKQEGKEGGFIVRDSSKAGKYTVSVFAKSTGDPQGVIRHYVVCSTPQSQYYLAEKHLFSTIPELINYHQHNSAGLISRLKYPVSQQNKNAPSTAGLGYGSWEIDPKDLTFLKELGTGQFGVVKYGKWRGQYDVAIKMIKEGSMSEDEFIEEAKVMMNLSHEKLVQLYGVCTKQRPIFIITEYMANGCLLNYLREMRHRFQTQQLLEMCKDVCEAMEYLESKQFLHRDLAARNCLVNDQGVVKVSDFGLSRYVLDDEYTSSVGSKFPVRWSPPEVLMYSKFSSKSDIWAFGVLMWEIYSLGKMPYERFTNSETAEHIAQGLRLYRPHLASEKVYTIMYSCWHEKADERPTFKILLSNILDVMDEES
# Procedure details: BTK protein degradation assay (Western blotting), WT BTK
# Type: cell-based
# Experimental setup: concentration range accounting for 50% degradation of WT BTK protein, TMD-8 or RAMOS cells, 24 hours
Readout: DC50

Solved entries:
INSERT INTO assay_data (compound, readout, result) VALUES
  ('Cc1cccc(C)c1Nc1nn(C)c2nc(Nc3ccc(N4CCN(c5cc6c(cc5F)C(=O)N(C5CCC(=O)NC5=O)C6=O)CC4)cc3)ncc12 (stereo not drawn)', 'DC50', '0.01 to 1 µM'),
  ('Cc1cccc(C)c1Nc1nn(C)c2nc(Nc3ccc4c(c3)CN(C[C@@H]3[C@H]5CN(c6ccc7c(c6)C(=O)N(C6CCC(=O)NC6=O)C7=O)C[C@@H]35)CC4)ncc12 (stereo partly drawn)', 'DC50', '0.0001 to 0.01 µM');

# ---- query compound ----
I am curious: what DC50 value has been reported for Cc1cccc(C)c1Nc1nn(C)c2nc(Nc3ccc4c(c3)CN(C(=O)COCCOCCNc3ccc5c(c3)C(=O)N(C3CCC(=O)NC3=O)C5=O)CC4)ncc12 (stereo not drawn) ?
0.0001 to 0.01 µM

###

# Target: WT BTK protein (Homo sapiens, UniProt Q06187)
# Construct: measured for intracellular BTK protein levels by Western blotting; endogenous in cells; host or cells: TMD-8 or RAMOS cells
# Procedure details: BTK protein degradation assay (Western blotting), WT BTK
# Format: cell-based
# Experimental setup: concentration range accounting for 50% degradation of WT BTK protein, TMD-8 or RAMOS cells, 24 hours
Readout: DC50

Solved entries:
INSERT INTO results (molecule, readout, result) VALUES
  ('Cc1cccc(C)c1Nc1nn(C)c2nc(Nc3ccc4c(c3)CN(C(=O)C3CCN(c5ccc6c(c5)n(C)c(=O)n6C5CCC(=O)NC5=O)CC3)CC4)ncc12 (stereo not drawn)', 'DC50', '0.0001 to 0.01 µM'),
  ('Cc1cccc(C)c1Nc1nn(C)c2nc(Nc3ccc(F)c(C4=CCN(C(=O)C5CN(c6ccc7c(c6)C(=O)N(C6CCC(=O)NC6=O)C7=O)C5)CC4)c3)ncc12 (stereo not drawn)', 'DC50', '0.0001 to 0.01 µM'),
  ('Cc1cccc(C)c1Nc1nn(C)c2nc(Nc3ccc4c(c3)CN(CC3CCN(C(=O)C5CCN(c6ccc7c(c6)C(=O)N(C6CCC(=O)NC6=O)C7=O)CC5)CC3)CC4)ncc12 (stereo not drawn)', 'DC50', '0.0001 to 0.01 µM'),
  ('Cc1cccc(C)c1Nc1nn(C)c2nc(Nc3ccc(C4CCN(C(=O)C5CN(c6ccc7c(c6)C(=O)N(C6CCC(=O)NC6=O)C7=O)C5)CC4)c(F)c3)ncc12 (stereo not drawn)', 'DC50', '0.01 to 1 µM'),
  ('Cc1cccc(C)c1Nc1nn(C)c2nc(Nc3ccc4c(c3)CN(CCNc3ccc5c(c3)C(=O)N(C3CCC(=O)NC3=O)C5=O)CC4)ncc12 (stereo not drawn)', 'DC50', '0.01 to 1 µM'),
  ('Cc1cccc(C)c1Nc1nn(C)c2nc(Nc3ccc4c(c3)CN(CC(=O)N3CCC(Oc5ccc6c(c5)C(=O)N(C5CCC(=O)NC5=O)C6)CC3)CC4)ncc12 (stereo not drawn)', 'DC50', '1 to 10 µM'),
  ('Cc1cccc(C)c1Nc1nn(C)c2nc(Nc3ccc(N4CCN(CC5CN(c6ccc7c(c6)C(=O)N(C6CCC(=O)NC6=O)C7=O)C5)[C@@H](C)C4)cc3)ncc12 (stereo partly drawn)', 'DC50', '0.0001 to 0.01 µM'),
  ('Cc1cccc(C)c1Nc1nn(C)c2nc(Nc3ccc4c(c3)CN(C(=O)C3CCN(C(=O)C5CCN(c6ccc7c(c6)C(=O)N(C6CCC(=O)NC6=O)C7=O)CC5)C3)CC4)ncc12 (stereo not drawn)', 'DC50', '0.01 to 1 µM');

I am curious: what DC50 value has been reported for Cc1cccc(C)c1Nc1nn(C)c2nc(Nc3ccc4c(c3)CN(CCC3(O)CCN(c5ccc6c(c5)C(=O)N(C5CCC(=O)NC5=O)C6=O)CC3)CC4)ncc12 (stereo not drawn) ?
0.0001 to 0.01 µM

Try this molecule too: Cc1cccc(C)c1Nc1nn(C)c2nc(Nc3ccc(CCNC(=O)C4CCN(CC(=O)Nc5ccc6c(c5)C(=O)N(C5CCC(=O)NC5=O)C6=O)CC4)cc3)ncc12 (stereo not drawn)
0.01 to 1 µM

Try this molecule too: Cc1cccc(C)c1Nc1nn(C)c2nc(Nc3ccc4c(c3)CN(C(=O)C3CCN(C(=O)CNc5ccc6c(c5)C(=O)N(C5CCC(=O)NC5=O)C6=O)CC3)CC4)ncc12 (stereo not drawn)
0.0001 to 0.01 µM

Try this molecule too: Cc1cccc(C)c1Nc1nn(C)c2nc(Nc3ccc(C4CCN(C(=O)CC5CCN(c6ccc7c(c6)C(=O)N(C6CCC(=O)NC6=O)C7=O)CC5)CC4)c(F)c3)ncc12 (stereo not drawn)
0.0001 to 0.01 µM

###

# Target: WT BTK protein (Homo sapiens, UniProt Q06187)
# Construct: measured for intracellular BTK protein levels by Western blotting; endogenous in cells; host or cells: TMD-8 or RAMOS cells
# Procedure details: BTK protein degradation assay (Western blotting), WT BTK
# Assay type: cell-based
# Experimental setup: concentration range accounting for 50% degradation of WT BTK protein, TMD-8 or RAMOS cells, 24 hours
Reported values of DC50 for individual entries

Solved entries:
INSERT INTO assay_data (molecule, readout, result) VALUES
  ('Cc1cccc(C)c1Nc1nn(C)c2nc(Nc3ccc4c(c3)CN(C(=O)CCOCCOCCOCCOCCNC(=O)COc3ccc5c(c3)C(=O)N(C3CCC(=O)NC3=O)C5=O)CC4)ncc12 (centres unmarked)', 'DC50', '0.1 to 10 nM'),
  ('Cc1cccc(C)c1Nc1nn(C)c2nc(Nc3ccc4c(c3)CN(C(=O)C3(F)CCN(C(=O)C5CCN(c6ccc7c(c6)C(=O)N(C6CCC(=O)NC6=O)C7=O)CC5)CC3)CC4)ncc12 (centres unmarked)', 'DC50', '0.1 to 10 nM');

# ---- query molecule ----
I am curious: what DC50 value has been reported for Cc1cccc(C)c1Nc1nn(C)c2nc(Nc3ccc4c(c3)CN(C(=O)COCCOCCOCCOCCNC(=O)C3CCN(c5cccc6c5C(=O)N(C5CCC(=O)NC5=O)C6=O)CC3)CC4)ncc12 (centres unmarked) ?
10 to 1000 nM
